- Tested on: Pseudomonas aeruginosa A5007
- assay_text: In-vitro antimicrobial activity primary screen (agar dilution MIC)
- Format: cell-based
- study_conditions: Pseudomonas aeruginosa, A5007, 24 h
measured_property: MIC

Would you please look over these solved cases?
>>> test_result("CC[C@H]1OC(=O)[C@H](C)[C@@H](O[C@H]2C[C@@](C)(OC)[C@H](N=CN(C)C)[C@H](C)O2)[C@H](C)[C@@H](O[C@@H]2O[C@H](C)C[C@H](N(C)C)[C@H]2O)[C@](C)(O)C[C@@H](C)[C@@H]2O[C@@]1(C)C(=O)[C@H]2C")
"> 100 µg/mL"
>>> test_result("CC[C@H]1OC(=O)[C@H](C)[C@@H](O[C@H]2C[C@@](C)(OC)[C@H](N)[C@H](C)O2)[C@H](C)[C@@H](O[C@@H]2O[C@H](C)C[C@H](N(C)C)[C@H]2O)[C@](C)(O)C[C@@H](C)[C@@H]2O[C@@]1(C)[C@@H](N)[C@H]2C")
"> 100 µg/mL"
>>> test_result("CC[C@H]1OC(=O)[C@H](C)[C@@H](O[C@H]2C[C@@](C)(OC)[C@@H](O)[C@H](C)O2)[C@H](C)[C@@H](O[C@@H]2O[C@H](C)C[C@H](N(C)C)[C@H]2O)[C@](C)(OC)C[C@@H](C)[C@@H]2O[C@@]1(C)[C@@H](O)[C@H]2C [Example 28A]")
"> 100 µg/mL"
>>> test_result("CC[C@H]1OC(=O)[C@H](C)[C@@H](O[C@H]2C[C@@](C)(OC)[C@@H](N)[C@H](C)O2)[C@H](C)[C@@H](O[C@@H]2O[C@H](C)C[C@H](N(C)C)[C@H]2O)[C@](C)(O)C[C@@H](C)[C@@H]2O[C@@]1(C)C(=O)[C@H]2C")
"> 100 µg/mL"

Each compound below has a reported value. Please supply its MIC.
1. CC[C@H]1OC(=O)[C@H](C)[C@@H](O[C@H]2C[C@@](C)(OC)[C@@H](O)[C@H](C)O2)[C@H](C)[C@@H](O[C@@H]2O[C@H](C)C[C@H](N(C)C)[C@H]2O)[C@](C)(O)C[C@@H](C)C(=O)[C@H](C)[C@@H](O)[C@]1(C)O [Std, Erythromycin A, reference compound]
2. CC[C@H]1OC(=O)[C@H](C)[C@@H](O[C@H]2C[C@@](C)(OC)[C@@H](O)[C@H](C)O2)[C@H](C)[C@@H](O[C@@H]2O[C@H](C)C[C@H](N(C)C)[C@H]2O)[C@](C)(O)C[C@@H](C)[C@@H]2O[C@@]1(C)[C@@H](O)[C@H]2C
3. CC[C@H]1OC(=O)[C@H](C)[C@@H](O[C@H]2C[C@@](C)(OC)[C@H](N)[C@H](C)O2)[C@H](C)[C@@H](O[C@@H]2O[C@H](C)C[C@H](N(C)C)[C@H]2O)[C@](C)(O)C[C@@H](C)[C@@H]2O[C@@]1(C)C(=O)[C@H]2C
4. CC[C@H]1OC(=O)[C@H](C)[C@@H](O[C@H]2C[C@@](C)(OC)[C@H](NCc3ccccc3)[C@H](C)O2)[C@H](C)[C@@H](O[C@@H]2O[C@H](C)C[C@H](N(C)C)[C@H]2O)[C@](C)(O)C[C@@H](C)[C@@H]2O[C@@]1(C)C(=O)[C@H]2C
5. CC[C@H]1OC(=O)[C@H](C)[C@@H](O[C@H]2C[C@@](C)(OC)[C@@H](O)[C@H](C)O2)[C@H](C)[C@@H](O[C@@H]2O[C@H](C)C[C@H](N(C)C)[C@H]2O)[C@](C)(OC)C[C@@H](C)C2=C(C)C(=O)[C@]1(C)O2
6. CC[C@H]1OC(=O)[C@H](C)[C@@H](O[C@H]2C[C@@](C)(OC)[C@@H](O)[C@H](C)O2)[C@H](C)[C@@H](O[C@@H]2O[C@H](C)C[C@H](N(C)C)[C@H]2O)[C@](C)(OC)C[C@@H](C)[C@@H]2O[C@@]1(C)C(=O)[C@H]2C [Example 28B]
7. CC[C@H]1OC(=O)[C@H](C)[C@@H](O[C@H]2C[C@@](C)(OC)[C@H](O)[C@H](C)O2)[C@H](C)[C@@H](O[C@@H]2O[C@H](C)C[C@H](N(C)C)[C@H]2O)[C@](C)(O)C[C@@H](C)[C@@H]2O[C@@]1(C)C(=O)[C@H]2C

Data returned:
1: > 100 µg/mL; 2: > 100 µg/mL; 3: > 100 µg/mL; 4: > 100 µg/mL; 5: > 100 µg/mL; 6: > 100 µg/mL; 7: > 100 µg/mL

Each compound below has a reported value. Please supply its MIC.
1. CC[C@H]1OC(=O)[C@H](C)[C@@H](O[C@H]2C[C@@](C)(OC)[C@H](N)[C@H](C)O2)[C@H](C)[C@@H](O[C@@H]2O[C@H](C)C[C@H](N(C)C)[C@H]2O)[C@](C)(O)C[C@@H](C)[C@@H]2O[C@@]1(C)[C@@H](O)[C@H]2C
2. CC[C@H]1OC(=O)[C@H](C)[C@@H](O[C@H]2C[C@@](C)(OC)[C@@H](OC(N)=O)[C@H](C)O2)[C@H](C)[C@@H](O[C@@H]2O[C@H](C)C[C@H](N(C)C)[C@H]2O)[C@](C)(O)C[C@@H](C)[C@@H]2O[C@@]1(C)[C@@H](O)[C@H]2C

Data returned:
1: > 100 µg/mL; 2: > 100 µg/mL

Where do the numbers come from? From patent US5288709A.
